B1: library; numbered along this chain (parent)
chain: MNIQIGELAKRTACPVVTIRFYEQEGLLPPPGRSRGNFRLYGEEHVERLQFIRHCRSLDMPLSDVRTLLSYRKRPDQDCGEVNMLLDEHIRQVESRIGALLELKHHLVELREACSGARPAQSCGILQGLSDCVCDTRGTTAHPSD

Variants of: B1
Experiment: sfGFP reporter fluorescence (15 h) (µM FITC); higher = stronger transcriptional activation
Settings: library round: Round 0; ligand: 1 µM Pb
Give sfGFP reporter fluorescence for every item shown.
One number for each entry.

Study these solved cases before continuing.
For this variant ( L62Q ), measured sfGFP reporter fluorescence is 0.0608

For this variant ( L107M ), measured sfGFP reporter fluorescence is 0.0605

For this variant ( C79H ), measured sfGFP reporter fluorescence is 0.0596

I would be grateful if you could provide sfGFP reporter fluorescence for each of the following entries.
1. C55K
2. C114R
3. Y22S
4. L27P
5. C55E

*A*
1. 0.061
2. 0.0603
3. 0.0608
4. 0.0612
5. 0.0603

I would be grateful if you could provide sfGFP reporter fluorescence for each of the following entries.
1. I125D
2. L27A
3. V82R
4. M60P
5. L85W

*A*
1. 0.0583
2. 0.0583
3. 0.0594
4. 0.0597
5. 0.0597

Where do the numbers come from? From the supplement of paper PMC12783771.
